- protocol: Half life in Sprague-Dawley rat at 10 mg/kg, po and 5 mg/kg, iv
- Format: ADME, organism-based
- experimental.context: in vivo
observation.type: half-life (h)
Give the value, in units of h, as a plain number.

*Q* Would you kindly share the measured half-life for `CC[C@H]1[C@@H]2[C@@H](O)CCN2C(=O)N1c1ccc(C#N)c(Cl)c1C` ?
*A* 5.5

====

- protocol: Toxicity against human hepatocyte
- Type: cell-based
- experimental.context: hepatocytes
observation.type: IC50

*Q* Would you kindly share the measured IC50 for `CC[C@H]1[C@@H]2[C@@H](O)CCN2C(=O)N1c1ccc(C#N)c(Cl)c1C` ?
*A* > 200 µM

====

- study.target: Androgen receptor (Homo sapiens, UniProt P10275)
- Sequence (P10275 whole entry): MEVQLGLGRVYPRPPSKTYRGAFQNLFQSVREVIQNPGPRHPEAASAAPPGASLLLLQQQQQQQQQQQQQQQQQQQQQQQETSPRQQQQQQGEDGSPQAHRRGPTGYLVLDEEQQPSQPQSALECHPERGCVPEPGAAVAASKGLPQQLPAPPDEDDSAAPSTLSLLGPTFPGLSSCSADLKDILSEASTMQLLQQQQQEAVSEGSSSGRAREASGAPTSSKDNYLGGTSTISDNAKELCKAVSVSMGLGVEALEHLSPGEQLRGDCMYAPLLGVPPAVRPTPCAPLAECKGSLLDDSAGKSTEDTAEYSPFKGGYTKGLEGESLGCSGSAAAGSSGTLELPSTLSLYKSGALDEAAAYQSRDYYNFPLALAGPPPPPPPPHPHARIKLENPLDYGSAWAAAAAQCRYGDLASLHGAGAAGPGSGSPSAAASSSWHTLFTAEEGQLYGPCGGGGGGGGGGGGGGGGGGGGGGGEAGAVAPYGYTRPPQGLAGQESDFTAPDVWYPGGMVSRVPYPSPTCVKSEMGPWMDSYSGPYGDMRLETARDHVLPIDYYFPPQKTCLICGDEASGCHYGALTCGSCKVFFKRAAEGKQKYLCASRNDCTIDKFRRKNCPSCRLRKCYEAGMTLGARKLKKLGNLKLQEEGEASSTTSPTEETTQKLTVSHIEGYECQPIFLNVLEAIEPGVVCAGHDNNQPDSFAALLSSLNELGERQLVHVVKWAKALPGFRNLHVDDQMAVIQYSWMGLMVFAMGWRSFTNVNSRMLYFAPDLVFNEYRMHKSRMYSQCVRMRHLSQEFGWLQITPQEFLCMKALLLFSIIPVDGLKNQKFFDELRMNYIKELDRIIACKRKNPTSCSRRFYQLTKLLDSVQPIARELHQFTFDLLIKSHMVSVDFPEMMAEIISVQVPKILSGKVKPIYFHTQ
observation.type: pKi
# pKi: negative log10 of molar concentration; output just the value

*Q* Can you look up pKi on Androgen receptor (Homo sapiens, UniProt P10275) for `CC[C@@H]1[C@@H]2[C@@H](O)CCN2C(=O)N1c1ccc(C#N)c(Cl)c1C` ?
*A* 8.80

*Q* Can you look up pKi on Androgen receptor (Homo sapiens, UniProt P10275) for `Cc1c(N2C(=O)N3CC[C@H](O)[C@H]3[C@@H]2C(F)(F)F)ccc(C#N)c1Cl` ?
*A* 9.05

====

- study.target: Glucocorticoid receptor (Homo sapiens)
- Sequence (P04150 whole entry): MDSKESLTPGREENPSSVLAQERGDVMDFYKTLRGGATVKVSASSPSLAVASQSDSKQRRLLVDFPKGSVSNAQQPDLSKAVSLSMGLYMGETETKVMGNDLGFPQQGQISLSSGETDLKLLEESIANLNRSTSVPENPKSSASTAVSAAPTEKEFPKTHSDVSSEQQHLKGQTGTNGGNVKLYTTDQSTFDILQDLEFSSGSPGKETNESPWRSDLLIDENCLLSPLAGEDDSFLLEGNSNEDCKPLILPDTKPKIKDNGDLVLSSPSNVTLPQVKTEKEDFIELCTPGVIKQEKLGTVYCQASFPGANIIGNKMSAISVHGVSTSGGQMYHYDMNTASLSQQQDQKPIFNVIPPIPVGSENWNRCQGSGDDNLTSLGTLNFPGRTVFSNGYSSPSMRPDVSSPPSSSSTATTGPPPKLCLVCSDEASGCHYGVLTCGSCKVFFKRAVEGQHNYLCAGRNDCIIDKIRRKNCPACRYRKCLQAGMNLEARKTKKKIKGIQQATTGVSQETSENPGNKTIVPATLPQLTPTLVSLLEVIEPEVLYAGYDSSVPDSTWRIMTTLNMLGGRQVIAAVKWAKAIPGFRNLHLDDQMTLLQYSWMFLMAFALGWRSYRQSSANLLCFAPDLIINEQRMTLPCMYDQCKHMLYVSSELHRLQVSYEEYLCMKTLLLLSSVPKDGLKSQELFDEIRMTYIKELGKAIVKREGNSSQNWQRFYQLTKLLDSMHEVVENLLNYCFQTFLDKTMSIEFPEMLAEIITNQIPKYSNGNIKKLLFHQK
pKi: −log10 of the molar value.
observation.type: pKi

*Q* Would you kindly share the measured pKi for `CC[C@H]1[C@@H]2[C@@H](O)CCN2C(=O)N1c1ccc(C#N)c(Cl)c1C` ?
*A* < 5.00

====

- protocol: Aqueous solubility of the compound
- Format: physicochemical
compounds and their reported solubility
Give the value, in units of µg/mL, as a plain number.

Worked cases, answers included:
Cc1c(N2C(=O)N3CC[C@@H](O)[C@H]3[C@H]2C(F)(F)F)ccc(C#N)c1Cl = 1140
Cc1c(N2C(=O)N3CC[C@H](O)[C@H]3[C@@H]2C)ccc(C#N)c1Cl = 613
CC[C@H]1[C@@H]2[C@@H](O)CCN2C(=O)N1c1ccc(C#N)c(Cl)c1C = 242

*Q* Would you kindly share the measured solubility for `Cc1c(N2C[C@@H]3[C@H](O)CCN3C2=O)ccc(C#N)c1Cl` ?
*A* 245
